Please provide measured Tm for the entries that follow.
# assay_text: Protein melting point by DSC
# Type: physicochemical
# experimental_setup: protein melting point by DSC; in °C (unit assumed)
Provide a numeric answer; units are not to be included.

Identify the reported Tm for the following entry. 6H2: six histidine N-terminal tagged SP1, SEQ ID NO:7 (protein) MHHHHHHATRTPKLVKHTLLTRFKDEITREQIDNYINDYTNLLDLIPSMKSFNWGTDLGMESAELNRGYTHAFESTFESKSGLQEYLDSAALAAFAEGFLPTLSQRLVIDYFLY
109

Identify the reported Tm for the following entry. E68A: SP1 mutant E68A, SEQ ID NO:19 (protein, Sp1 mutant variant E68A mutated) MATRTPKLVKHTLLTRFKDEITREQIDNYINDYTNLLDLIPSMKSFNWGTDLGMESAELNRGYTHAFASTFESKSGLQEYLDSAALAAFAEGFLPTLSQRLVIDYFLY
105.8

Identify the reported Tm for the following entry. F106A 6XH2: SP1 mutant F106A 6XH2, SEQ ID NO:23 (protein, Sp1 mutant variant 6Xhis inserted into position 2 and F106A mutated) MHHHHHHATRTPKLVKHTLLTRFKDEITREQIDNYINDYTNLLDLIPSMKSFNWGTDLGMESAELNRGYTHAFESTFESKSGLQEYLDSAALAAFAEGFLPTLSQRLVIDYALY
75

These measurements were taken from patent US20150273076A1.
